system_name: T1, His-tagged human CD38 (ACRO Biosystems cat #CD8-H5224) (human, UniProt P28907 43-300)
T1 construct: bought recombinant protein with His tag
test_method_notes: ELISA, coated His-CD38
A collection of binders and their measured ELISA 1 ug/ml

{"columns": ["binder", "ELISA 1 ug/ml"],
 "data": [
  ["40769p1.1.G12 (scFv, V domains shown, tested as scFv-Fc supernatant) VH: EVQLLESGGGLVQPGGSLRLSCAASGFTFDDYVMSWVRQAPGKGLEWVSEISESDGSNKYYADSVKGRFIISRDNSKNTLYLQMNSLRAEDTAVYYCARLEPEKYYGMDVWGQGTTVTVSS VL: QSVLTQPPSASGTPGQRVTISCSGSNSNIGNNLVSWYQQLPGTAPKLLIYRHDHRPSGVPDRFSGSKSGTSASLAISGLQSEDEADYYCATWDDSLNGRAFGGGTKLTVL", 1.45],
  ["40769p1.1.E2 (scFv, V domains shown, tested as scFv-Fc supernatant) VH: EVLLLESGGGLVQPGGSLRLSCAASGFTFSDYWMSWVRQAPGKGLEWVSTISISAGIIYYADSVKGRFTISRDNSKNTLYLQMNSLRAEDTAVYYCAKDNWNDYYGMDVWGQGTTVTVSS VL: QSVLTQPPSASGTPGQRVTMSCSGNNQNIRDNYVYWYQQVPGTAPKLLIYKDDQRPSGVPDRFSGSKSGTSASLAISGLQSEDEADYYCATWDGSLKARVFGGGTKLTVL", 1.65],
  ["40566p1.C1 (scFv, V domains shown, tested as scFv-Fc supernatant) VH: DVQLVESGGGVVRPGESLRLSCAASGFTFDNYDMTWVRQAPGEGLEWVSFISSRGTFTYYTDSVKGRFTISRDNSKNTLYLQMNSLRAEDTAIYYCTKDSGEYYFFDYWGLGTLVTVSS VL: ETVMTQSPATLSVSPGERATFSCRASQSVNSKLAWYQQKPGQAPRLLIYGASRRATGIPDRFSGSGSGTEFTLTISSLQSEDFAVYYCQQYYDWPPLTFGGGTKVEIK", 1.92],
  ["40769p1.2.B4 (scFv, V domains shown, tested as scFv-Fc supernatant) VH: EVQLLESGGDLVQPGGSLRLSCGASGFTFSDHYMSWVRQAPGKGLEWVADISARGSNTWYADSVKGRFTISRDNSENTLYLQMNSLRAEDTAVYYCAKNWNYNYGMDVWGHGTTVTVSS VL: QSVLTQAPSASGTPGQRVTISCSGSSIQNNYVSWYQQLPGTAPKLLIYRNFERPSGVPDRFSASKSGTSASLAISGLQSEDEADYYCASWDDSLNWVFGGGTKLTVL", 1.55],
  ["40566p1.B12 (scFv, V domains shown, tested as scFv-Fc supernatant) VH: DVQLVESGGGVVRPGESLRLSCAASGFTFDNYDMTWVRQAPGEGLEWVSFISSRGIFTYYADSVKGRFTISRDNSKNTLYLQMNSLRAEDTAIYYCAKDSGEYYFFDYWGLGTLVTVSS VL: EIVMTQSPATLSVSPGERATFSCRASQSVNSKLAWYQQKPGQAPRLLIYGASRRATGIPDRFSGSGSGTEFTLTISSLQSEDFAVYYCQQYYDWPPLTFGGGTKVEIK", 1.72]
]}
